target: F protein of hMPV A virus (human metapneumovirus subtype A); assay: cell-based or functional assay
quantity name: PRNT IC50 (µg/mL)
Report the value in µg/mL with no unit label.

PRNT IC50 reported for this binder M1C7 (antibody, V domains shown) VH: QVQLVESGGGLVQPGRSLRLSCAASGFTFSSYAMHWVRQAPGKGLEWVAIITYDGSGKYYADSLEGRITISRDDPKSMLYLHMRSLTAEDTAVYYCVKSGSFSSAFWLEDWGQGTLVTVSS VL: EIVLTQSPATLSLSPGERATLSCRASQSISNFVAWYQQKPGQAPRLLIYDASNGATGTPARFSGSGSGTDFTLTISSLEPEDFAVYYCQQRSTWTFGQGTKVEIKR : 0.0083

Record summary for M2B6 (antibody, V domains shown) VH: QVQLQESGPGLVKPSETLSLTCSVSGASIGGYYWGWIRQPPGKGLEWLGYIYYSGRTVYSPSLRGRLALSLDMSRQQLSLRLRSVAAADTAVYYCASLTITPGWFDSWGPGTLVTVSS VL: QSVLTQPPSVSGAPGQRVTISCTGSSSNIGAGYDVHWYQQFPGSAPKLLIYGNTKRPSGVPDRFSGSTSGSSASLAITGLQTEDEAEYYCQSYERNLDGALFGGGTKLSVL : reported PRNT IC50 = 0.044

In plain terms, M1A04 (antibody, V domains shown, IgG) VH: EVQLVESGGGLVRPGGSLRLSCAASGFNVRNYYMSWVRQAPGKGLEWISVIYGGGTTFYAGSVKGRFTISRDDSKSTLFLQMNSLRADDTAVYYCARDPGTVMSTENLQGMDVWGQGTTVTVSS VL: DIQMTQSPSSLSASVGDRVTITCRASQTIRSYLNWYQQKPGKAPNLLIYAATSLQSGVPSRFSGSGSGTDFTLTISSLQPEDSATYYCQQSFSTLYSFGQGTRLEIK has a documented PRNT IC50 of 0.0872

Lab book: PRNT IC50 of M2D2 (antibody, V domains shown, IgG) VH: QVQLVQSGAEVKKPGASVKVSCKASGYNFDNYYMSWVRQAPGQGLEWLGIIDPSGGRISYAPKFQGRVTLTRDTSTSTVYMELRGLRFEDTALYYCARLEATHEGPWGQGTLVTVSS VL: QSVLTQPPSASGTPGQRVTISCSGSNSNIGSSTVNWYQQLPGTAPKLLIYSDNHRPSGVPDRFSGSRSGTSASLVISGLHSEDEADYYCGTWDDGLNGPYVFGTGTKVTVL noted as 0.0296

For this binder ( M8C10 (antibody, V domains shown) VH: QVQLVESGGGVVQPGRSLRLSCAASGFTFTTYTMHWVRQAPGKGLEWVALISSDGNNKYYADSVKGRFTISRDNSKNTLYLQMSSLRAEDTAVYYCARGYYSGGDAFDVWGQGTMVTVSS VL: DIQMTQSPSTLSASVGDRVTITCRASQTITIWLAWYQQKPGKAPKLLIYDAVSLESGVPSRFRGSGSGTDFTLTISSLQPDDFATYYCQQYNNYPYTFGQGTKLEIKR ), measured PRNT IC50 is 0.37

Field PRNT IC50 (entry M1D2 (antibody, V domains shown) VH: QVQLQESGPGLVKPSGTLSLTCTVSGGSVNSDHWWTWVRQSPETGLEWIGELNHIGTFNYNPSFKSRATISIDTSKNQFSLTLTSVAAADTAVYYCARRPPPLPEYFYYYFMDVWGNGTTVTVSS VL: DIQMTQSPSSLSASVGDRVTITCRTSQSIRGHINWYQQKPGKGPKLLIYGASSLQSGVPSRFSGSGSGTDFTLTISSLQAEDFATYYCQQSYSNPYSFGRGTKLEIKR ) reads 0.0117

The binder identified as M1C7s (antibody, V domains shown) VH: QVQLVQSGPEVRKPGSSVRVSCKASGGTFTRLTITWVRQAPGQGLEWMGRIIPAVDITNYAPKFQGRVTITADKSTGAVYMDLISLTSDDTAIYFCATVLDWSNALDIWGQGTMVTVSS VL: DIVMTQTPLSLSVTPGQPASISCKSSESLLNSDGKTYLFWYLQKPGQSPQVLIYDLSSRFSGVPERFSGSGSGTDFTLKISRVEPEDVGIYYCMQGLHLPWTFGRGTRLEIKR registered its PRNT IC50 at 0.015
